target or test system: RORγ-LBD (Homo sapiens, UniProt P51449)
Construct: made in house; host or cells: SF9 cells (baculovirus); used as diluted lysate
Sequence (P51449 269-508 limits assumed): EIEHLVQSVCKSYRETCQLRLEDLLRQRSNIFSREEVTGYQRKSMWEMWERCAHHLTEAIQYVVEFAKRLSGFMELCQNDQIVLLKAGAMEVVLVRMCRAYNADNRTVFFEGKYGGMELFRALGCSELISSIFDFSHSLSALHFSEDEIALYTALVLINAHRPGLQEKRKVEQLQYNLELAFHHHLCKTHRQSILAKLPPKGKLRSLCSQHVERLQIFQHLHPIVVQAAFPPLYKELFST
experiment summary: RORγ-Ligand Binding Domain (LBD) TR-FRET Assay
Format: biochemical
measurement setup: RORγ-LBD TR-FRET
pEC50: −log10 of the molar value.
measurement type: pEC50

Field: example entries. Status: answers known.
>>> measured_result("O=C(O)CC[C@H]1CN(S(=O)(=O)c2cccc(C(F)(F)F)c2)c2cc(/C=C3/CCCOC3)ccc2O1 [Example 95J]")
"> 6.30"
>>> measured_result("COC(=O)CC[C@H]1CN(S(=O)(=O)c2cccc(OC(F)F)c2)c2cc(/C=C/c3ccc(C)cc3)ccc2O1 [Example 89BF]")
"5.30 to 6.30"
>>> measured_result("CCOc1nn(CC)cc1S(=O)(=O)N1C[C@H](CCC(=O)O)Oc2ccc(/C=C/c3ccccc3OC(F)(F)F)cc21 [Example 89BA]")
"> 6.30"

# input for lookup
Please indicate pEC50 recorded for O=C(O)CC[C@H]1CN(S(=O)(=O)c2cc(Cl)cnc2OCCO)c2cc(/C=C/c3c(F)cccc3Cl)ccc2O1 [Example 89AL] > 6.30

Hello, the source for this data is patent US9896441B2, in case you need it.
